Provenance of the data: ChEMBL document CHEMBL4699428

This listing pairs molecules with measured IC50.
Test system: MDA-MB-231
Experiment: Antiproliferative activity against human MDA-MB-231 cells assessed as reduction in cell viability incubated for 48 hrs by MTT assay
Assay type: functional, cell-based
Details: MDA-MB-231, 48 h
Recorded Endpoint: IC50 (µM)

>  <Molecule>
N#Cc1ncn(-c2ccc(F)cc2)c1/N=C/c1cc([N+](=O)[O-])ccc1O

>  <Unit Spec>
µM

>  <Cmp>
=

>  <Recorded Measurement>
17.2

$$$$
>  <Molecule>
N#Cc1ncn(-c2ccc(F)cc2)c1/N=C/c1ccc([N+](=O)[O-])cc1

>  <Unit Spec>
µM

>  <Cmp>
=

>  <Recorded Measurement>
13.4

$$$$
>  <Molecule>
COc1ccc(OC)c(/C=N/c2c(C#N)ncn2-c2ccc(F)cc2)c1

>  <Unit Spec>
µM

>  <Cmp>
=

>  <Recorded Measurement>
12.3

$$$$
>  <Molecule>
N#Cc1ncn(-c2ccc(F)cc2)c1/N=C/c1ccc(O)cc1

>  <Unit Spec>
µM

>  <Cmp>
=

>  <Recorded Measurement>
16.3

$$$$
>  <Molecule>
CC(C)c1ccc(/C=N/c2c(C#N)ncn2-c2ccc(F)cc2)cc1

>  <Unit Spec>
µM

>  <Cmp>
=

>  <Recorded Measurement>
20.4

$$$$
>  <Molecule>
COc1ccc(/C=N/c2c(C#N)ncn2Cc2ccc(F)cc2)cc1

>  <Unit Spec>
µM

>  <Cmp>
=

>  <Recorded Measurement>
2.87

$$$$
>  <Molecule>
COc1ccc(/C=N/c2c(C#N)ncn2Cc2ccc(F)cc2)cc1OC

>  <Unit Spec>
µM

>  <Cmp>
=

>  <Recorded Measurement>
10.5

$$$$
>  <Molecule>
COc1cc(/C=N/c2c(C#N)ncn2Cc2ccc(F)cc2)cc(OC)c1OC

>  <Unit Spec>
µM

>  <Cmp>
=

>  <Recorded Measurement>
2.87

$$$$
>  <Molecule>
COc1cc(/C=N/c2c(C#N)ncn2-c2ccc(F)cc2)ccc1O

>  <Unit Spec>
µM

>  <Cmp>
=

>  <Recorded Measurement>
13.6

$$$$
>  <Molecule>
COc1ccc(/C=N/c2c(C#N)ncn2Cc2ccc(F)cc2)cc1O

>  <Unit Spec>
µM

>  <Cmp>
=

>  <Recorded Measurement>
2.67

$$$$
>  <Molecule>
COc1ccc(/C=N/c2c(C#N)ncn2-c2ccc(F)cc2)cc1

>  <Unit Spec>
µM

>  <Cmp>
=

>  <Recorded Measurement>
17.1

$$$$
>  <Molecule>
N#Cc1ncn(Cc2ccc(F)cc2)c1/N=C/c1ccc([N+](=O)[O-])cc1

>  <Unit Spec>
µM

>  <Cmp>
=

>  <Recorded Measurement>
3.44

$$$$
>  <Molecule>
COc1ccc(C2N=C(C(N)=O)c3ncn(-c4ccc(F)cc4)c3N2)cc1OC (stereo not given)

>  <Unit Spec>
µM

>  <Cmp>
=

>  <Recorded Measurement>
6.76

$$$$
>  <Molecule>
COc1cc(C2N=C(C(N)=O)c3ncn(-c4ccc(F)cc4)c3N2)cc(OC)c1OC (stereo not given)

>  <Unit Spec>
µM

>  <Cmp>
=

>  <Recorded Measurement>
8.67

$$$$
>  <Molecule>
COc1ccc(/C=N/c2c(C#N)ncn2Cc2ccc(F)cc2)c(OC)c1OC

>  <Unit Spec>
µM

>  <Cmp>
>

>  <Recorded Measurement>
25

$$$$
>  <Molecule>
COc1ccc(/C=N/c2c(C#N)ncn2-c2ccc(F)cc2)cc1OC

>  <Unit Spec>
µM

>  <Cmp>
=

>  <Recorded Measurement>
4.27

$$$$
>  <Molecule>
COc1ccc(OC)c(/C=N/c2c(C#N)ncn2Cc2ccc(F)cc2)c1

>  <Unit Spec>
µM

>  <Cmp>
=

>  <Recorded Measurement>
17.6

$$$$
>  <Molecule>
COc1cc(/C=N/c2c(C#N)ncn2-c2ccc(F)cc2)cc(OC)c1OC

>  <Unit Spec>
µM

>  <Cmp>
=

>  <Recorded Measurement>
18.7

$$$$
>  <Molecule>
COc1cc(/C=N/c2c(C#N)ncn2Cc2ccc(F)cc2)ccc1O

>  <Unit Spec>
µM

>  <Cmp>
=

>  <Recorded Measurement>
16.1

$$$$
>  <Molecule>
COc1ccc(/C=N/c2c(C#N)ncn2-c2ccc(F)cc2)cc1O

>  <Unit Spec>
µM

>  <Cmp>
=

>  <Recorded Measurement>
21.4

$$$$

* * *

Tested on: MCF7
Test: Antiproliferative activity against human MCF-7 cells assessed as reduction in cell viability incubated for 48 hrs by MTT assay
Type: functional, cell-based
Details: MCF7, 48 h
Recorded Endpoint: IC50 (µM)

>  <Compound>
CC(C)c1ccc(/C=N/c2c(C#N)ncn2-c2ccc(F)cc2)cc1

>  <Recorded Endpoint>
IC50

>  <Recorded Measurement>
9.87

$$$$
>  <Compound>
COc1ccc(/C=N/c2c(C#N)ncn2Cc2ccc(F)cc2)cc1OC

>  <Recorded Endpoint>
IC50

>  <Recorded Measurement>
11.1

$$$$
>  <Compound>
COc1ccc(C2N=C(C(N)=O)c3ncn(-c4ccc(F)cc4)c3N2)cc1OC (stereo not given)

>  <Recorded Endpoint>
IC50

>  <Recorded Measurement>
5.71

$$$$
>  <Compound>
COc1ccc(/C=N/c2c(C#N)ncn2-c2ccc(F)cc2)cc1OC

>  <Recorded Endpoint>
IC50

>  <Recorded Measurement>
14.7

$$$$
>  <Compound>
N#Cc1ncn(-c2ccc(F)cc2)c1/N=C/c1ccc([N+](=O)[O-])cc1

>  <Recorded Endpoint>
IC50

>  <Recorded Measurement>
9.1

$$$$
>  <Compound>
COc1ccc(/C=N/c2c(C#N)ncn2-c2ccc(F)cc2)cc1O

>  <Recorded Endpoint>
IC50

>  <Recorded Measurement>
7.85

$$$$
>  <Compound>
N#Cc1ncn(Cc2ccc(F)cc2)c1/N=C/c1ccc([N+](=O)[O-])cc1

>  <Recorded Endpoint>
IC50

>  <Recorded Measurement>
10.6

$$$$
>  <Compound>
COc1ccc(/C=N/c2c(C#N)ncn2Cc2ccc(F)cc2)c(OC)c1OC

>  <Recorded Endpoint>
IC50

>  <Recorded Measurement>
12.6

$$$$
>  <Compound>
COc1cc(C2N=C(C(N)=O)c3ncn(-c4ccc(F)cc4)c3N2)cc(OC)c1OC (stereo not given)

>  <Recorded Endpoint>
IC50

>  <Recorded Measurement>
7.46

$$$$
>  <Compound>
COc1cc(/C=N/c2c(C#N)ncn2Cc2ccc(F)cc2)ccc1O

>  <Recorded Endpoint>
IC50

>  <Recorded Measurement>
11.3

$$$$
>  <Compound>
COc1ccc(OC)c(/C=N/c2c(C#N)ncn2Cc2ccc(F)cc2)c1

>  <Recorded Endpoint>
IC50

>  <Recorded Measurement>
10.9

$$$$
>  <Compound>
COc1ccc(/C=N/c2c(C#N)ncn2Cc2ccc(F)cc2)cc1

>  <Recorded Endpoint>
IC50

>  <Recorded Measurement>
3.87

$$$$
>  <Compound>
COc1ccc(OC)c(/C=N/c2c(C#N)ncn2-c2ccc(F)cc2)c1

>  <Recorded Endpoint>
IC50

>  <Recorded Measurement>
7.09

$$$$
>  <Compound>
COc1cc(/C=N/c2c(C#N)ncn2Cc2ccc(F)cc2)cc(OC)c1OC

>  <Recorded Endpoint>
IC50

>  <Recorded Measurement>
9.04

$$$$
>  <Compound>
COc1cc(/C=N/c2c(C#N)ncn2-c2ccc(F)cc2)ccc1O

>  <Recorded Endpoint>
IC50

>  <Recorded Measurement>
9.99

$$$$
>  <Compound>
COc1ccc(/C=N/c2c(C#N)ncn2-c2ccc(F)cc2)cc1

>  <Recorded Endpoint>
IC50

>  <Recorded Measurement>
9.33

$$$$
>  <Compound>
N#Cc1ncn(-c2ccc(F)cc2)c1/N=C/c1ccc(O)cc1

>  <Recorded Endpoint>
IC50

>  <Recorded Measurement>
11.5

$$$$
>  <Compound>
COc1ccc(/C=N/c2c(C#N)ncn2Cc2ccc(F)cc2)cc1O

>  <Recorded Endpoint>
IC50

>  <Recorded Measurement>
4.53

$$$$
>  <Compound>
COc1cc(/C=N/c2c(C#N)ncn2-c2ccc(F)cc2)cc(OC)c1OC

>  <Recorded Endpoint>
IC50

>  <Recorded Measurement>
8.32

$$$$
>  <Compound>
N#Cc1ncn(-c2ccc(F)cc2)c1/N=C/c1cc([N+](=O)[O-])ccc1O

>  <Recorded Endpoint>
IC50

>  <Recorded Measurement>
9.99

$$$$

* * *

Experiment: Cytotoxicity against human peripheral blood mononuclear cells assessed as reduction in cell survival at 10 uM incubated for 48 hrs by MTT assay
Format: cell-based
Conditions: pbmc
Recorded Endpoint: Activity

>  <Compound>
COc1ccc(/C=N/c2c(C#N)ncn2Cc2ccc(F)cc2)cc1

>  <Recorded Measurement>
Non-Toxic

$$$$
>  <Compound>
COc1ccc(C2N=C(C(N)=O)c3ncn(-c4ccc(F)cc4)c3N2)cc1OC (configuration not stated)

>  <Recorded Measurement>
Non-Toxic

$$$$
>  <Compound>
COc1ccc(/C=N/c2c(C#N)ncn2-c2ccc(F)cc2)cc1OC

>  <Recorded Measurement>
Toxic

$$$$
>  <Compound>
COc1cc(/C=N/c2c(C#N)ncn2Cc2ccc(F)cc2)cc(OC)c1OC

>  <Recorded Measurement>
Toxic

$$$$
>  <Compound>
COc1ccc(/C=N/c2c(C#N)ncn2Cc2ccc(F)cc2)cc1O

>  <Recorded Measurement>
Non-Toxic

$$$$
>  <Compound>
COc1cc(C2N=C(C(N)=O)c3ncn(-c4ccc(F)cc4)c3N2)cc(OC)c1OC (configuration not stated)

>  <Recorded Measurement>
Toxic

$$$$
>  <Compound>
N#Cc1ncn(Cc2ccc(F)cc2)c1/N=C/c1ccc([N+](=O)[O-])cc1

>  <Recorded Measurement>
Toxic

$$$$
